Attribution: patent US9452986B2

testSystem: recombinant human Nav1.7 (Homo sapiens (Human))
experimentNotes: FRET-based membrane potential assay, recombinant human sodium channel Nav1.7
Assay type: cell-based
assayContext: read-out: FRET-Membrane Potential Nav1.7 IC50
pIC50: −log10 of the molar value.
Recorded pIC50, one value per entry.

[
  {
    "molecule": "CN(CC(=O)NC1CC1)C(=O)c1ccc2cc(Oc3ccc(C(F)(F)F)nc3)ccc2n1",
    "comparisonSymbol": "=",
    "pIC50": 4.97
  },
  {
    "molecule": "COC[C@H]1CN(C(=O)c2ccc3cc(Oc4ccc(C(F)(F)F)cn4)ccc3n2)CCN1",
    "comparisonSymbol": "=",
    "pIC50": 6.21
  },
  {
    "molecule": "Cc1noc(C2CCCN(C(=O)c3ccc4cc(Oc5ccccn5)ccc4n3)C2)n1 (centres unmarked)",
    "comparisonSymbol": "<",
    "pIC50": 4.70
  },
  {
    "molecule": "O=C(NCC1CCN1)c1ccc2cc(Oc3ccc(C(F)(F)F)cn3)ccc2n1 (centres unmarked)",
    "comparisonSymbol": "=",
    "pIC50": 5.88
  },
  {
    "molecule": "N#Cc1ccc(Oc2ccc3nc(C(=O)NC4CCS(=O)(=O)C4)ccc3c2)cc1 (centres unmarked)",
    "comparisonSymbol": "=",
    "pIC50": 6.27
  },
  {
    "molecule": "CN(C)C(=O)CNC(=O)c1ccc2cc(Oc3ccc(C(F)(F)F)cn3)ccc2n1",
    "comparisonSymbol": "=",
    "pIC50": 6.33
  },
  {
    "molecule": "CC[C@H]1CN(C(=O)c2ccc3cc(Oc4ccc(C(F)(F)F)nc4)ccc3n2)CCN1",
    "comparisonSymbol": "=",
    "pIC50": 6.02
  },
  {
    "molecule": "N#Cc1ccc(Oc2ccc3nc(C(=O)N4CCc5ccccc54)ccc3c2)cc1",
    "comparisonSymbol": "<",
    "pIC50": 4.70
  }
]

###

testSystem: recombinant human Nav1.7 (Homo sapiens (Human), UniProt Q15858)
Sequence (Q15858 whole entry): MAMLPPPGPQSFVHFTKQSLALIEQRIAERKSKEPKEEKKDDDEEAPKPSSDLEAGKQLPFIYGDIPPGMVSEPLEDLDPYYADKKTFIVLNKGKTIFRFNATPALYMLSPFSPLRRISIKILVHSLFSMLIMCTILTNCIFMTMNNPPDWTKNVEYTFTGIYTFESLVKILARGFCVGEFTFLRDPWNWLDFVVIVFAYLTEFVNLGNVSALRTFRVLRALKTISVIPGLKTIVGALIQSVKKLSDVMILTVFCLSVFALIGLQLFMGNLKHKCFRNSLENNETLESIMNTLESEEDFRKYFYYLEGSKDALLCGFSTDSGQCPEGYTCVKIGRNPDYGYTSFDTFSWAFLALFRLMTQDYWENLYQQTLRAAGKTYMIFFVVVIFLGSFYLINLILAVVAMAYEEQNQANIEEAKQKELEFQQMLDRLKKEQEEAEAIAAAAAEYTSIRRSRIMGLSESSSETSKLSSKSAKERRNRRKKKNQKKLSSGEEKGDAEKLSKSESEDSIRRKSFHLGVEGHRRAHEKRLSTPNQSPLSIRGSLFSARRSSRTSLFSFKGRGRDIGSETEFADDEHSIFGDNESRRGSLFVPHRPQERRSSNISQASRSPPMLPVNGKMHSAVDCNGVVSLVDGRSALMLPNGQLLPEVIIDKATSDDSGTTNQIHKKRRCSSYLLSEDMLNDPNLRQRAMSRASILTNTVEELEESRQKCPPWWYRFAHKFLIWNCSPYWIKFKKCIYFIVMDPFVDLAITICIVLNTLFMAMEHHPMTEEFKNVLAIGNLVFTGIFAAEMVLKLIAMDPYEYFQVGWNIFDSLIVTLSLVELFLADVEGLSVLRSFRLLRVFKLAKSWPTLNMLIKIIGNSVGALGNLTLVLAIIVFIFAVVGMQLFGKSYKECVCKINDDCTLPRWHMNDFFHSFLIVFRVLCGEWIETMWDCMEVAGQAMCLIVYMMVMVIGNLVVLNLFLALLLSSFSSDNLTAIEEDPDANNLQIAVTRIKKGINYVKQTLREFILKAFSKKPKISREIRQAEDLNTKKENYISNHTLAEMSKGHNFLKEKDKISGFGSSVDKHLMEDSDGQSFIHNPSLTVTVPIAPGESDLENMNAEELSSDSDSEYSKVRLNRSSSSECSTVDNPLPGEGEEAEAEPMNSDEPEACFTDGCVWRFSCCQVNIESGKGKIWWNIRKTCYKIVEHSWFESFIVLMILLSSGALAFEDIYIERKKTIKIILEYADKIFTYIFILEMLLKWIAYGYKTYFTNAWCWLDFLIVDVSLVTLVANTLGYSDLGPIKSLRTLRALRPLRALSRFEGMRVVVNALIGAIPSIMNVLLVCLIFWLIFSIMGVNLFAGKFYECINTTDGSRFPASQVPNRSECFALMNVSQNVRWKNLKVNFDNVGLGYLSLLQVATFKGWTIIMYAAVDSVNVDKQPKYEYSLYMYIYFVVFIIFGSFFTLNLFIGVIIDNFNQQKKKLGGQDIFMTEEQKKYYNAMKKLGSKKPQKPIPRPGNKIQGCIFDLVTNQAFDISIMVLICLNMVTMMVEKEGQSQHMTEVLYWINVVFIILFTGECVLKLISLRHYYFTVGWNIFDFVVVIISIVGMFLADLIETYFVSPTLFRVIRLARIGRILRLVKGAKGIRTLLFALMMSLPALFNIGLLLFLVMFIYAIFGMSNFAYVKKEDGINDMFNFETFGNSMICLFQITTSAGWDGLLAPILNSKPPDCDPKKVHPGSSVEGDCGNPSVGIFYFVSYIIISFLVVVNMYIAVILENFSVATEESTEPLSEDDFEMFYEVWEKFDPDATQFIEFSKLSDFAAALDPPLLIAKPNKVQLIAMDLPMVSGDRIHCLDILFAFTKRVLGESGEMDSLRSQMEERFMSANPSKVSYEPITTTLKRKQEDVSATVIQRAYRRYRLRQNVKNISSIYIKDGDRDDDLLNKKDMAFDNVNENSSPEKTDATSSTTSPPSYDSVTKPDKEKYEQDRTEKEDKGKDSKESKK
experimentNotes: FRET-based membrane potential assay, recombinant human sodium channel Nav1.7
Format: cell-based
assayContext: read-out: FRET-Membrane Potential Nav1.7 IC50
pIC50: −log10 of the molar value.
recordedMetric: pIC50

[
  {
    "molecule": "CC(O)C(C)NC(=O)c1ccc2cc(Oc3ccc(C#N)cc3)ccc2n1 (centres unmarked) [Example 134]",
    "dataValue": 5.63
  },
  {
    "molecule": "CCN(CC)C(=O)CNC(=O)c1ccc2cc(Oc3ccc(C(F)(F)F)cn3)ccc2n1 [Example 446]",
    "dataValue": 6.78
  },
  {
    "molecule": "CC1(CO)CN(C(=O)c2ccc3cc(Oc4ccc(C(F)(F)F)cn4)ccc3n2)C1 [Example 207]",
    "dataValue": 5.44
  },
  {
    "molecule": "O=C(NCCOC(F)(F)F)c1ccc2cc(Oc3ccc(C(F)(F)F)cn3)ccc2n1 [Example 547]",
    "dataValue": 5.48
  },
  {
    "molecule": "O=C(c1ccc2cc(Oc3ccc(C(F)F)cn3)ccc2n1)N1CCNC2(CC2)C1 [Example 558]",
    "dataValue": 5.35
  },
  {
    "molecule": "O=C1CN(C(=O)c2ccc3cc(Oc4ccc(C(F)(F)F)cn4)ccc3n2)C1 [Example 370]",
    "dataValue": 5.47
  },
  {
    "molecule": "O=C(NCC(=O)N1CCCC1)c1ccc2cc(Oc3ccc(C(F)(F)F)nc3)ccc2n1 [Example 513]",
    "dataValue": 6.04
  },
  {
    "molecule": "N#Cc1ccc(Oc2ccc3nc(C(=O)N[C@H]4CCCC[C@@H]4O)ccc3c2)cc1 [Example 120]",
    "dataValue": 5.69
  },
  {
    "molecule": "O=C(c1ccc2cc(Oc3ccc(C(F)(F)F)cn3)ccc2n1)N1CCC[C@@H](O)C1 [Example 581]",
    "dataValue": 4.90
  },
  {
    "molecule": "O=C(c1ccc2cc(Oc3ccc(C(F)(F)F)cn3)ccc2n1)N1CCN(c2cccnn2)CC1 [Example 271]",
    "dataValue": 4.95
  },
  {
    "molecule": "O=C1C[C@H](NC(=O)c2ccc3cc(Oc4ccc(C(F)(F)F)cn4)ccc3n2)CCN1 [Example 521]",
    "dataValue": 5.58
  },
  {
    "molecule": "O=C(c1ccc2cc(Oc3ccc(C(F)(F)F)cn3)ccc2n1)N1CCNCC(F)(F)C1 [Example 417]",
    "dataValue": 4.94
  },
  {
    "molecule": "O=C(c1ccc2cc(Oc3ccc(C(F)(F)F)cn3)ccc2n1)N1CCN(S(=O)(=O)c2ccccc2)CC1 [Example 178]",
    "dataValue": 6.28
  },
  {
    "molecule": "CN(CC(F)F)C(=O)c1ccc2cc(Oc3ccc(C(F)(F)F)cn3)ccc2n1 [Example 622]",
    "dataValue": 5.27
  },
  {
    "molecule": "CC(C)(CO)NC(=O)c1ccc2cc(Oc3ccc(C#N)cc3)ccc2n1 [Example 124]",
    "dataValue": 5.67
  },
  {
    "molecule": "O=C(c1ccc2cc(Oc3ncc(C(F)(F)F)cc3Br)ccc2n1)N1CCNCC1 [Example 295]",
    "dataValue": 5.49
  },
  {
    "molecule": "CN(C)C(=O)CNC(=O)c1ccc2cc(Oc3ccc(C(F)F)cn3)ccc2n1 [Example 441]",
    "dataValue": 5.94
  }
]
